# test target: UniProt P41145
# assay overview: κ-opioid receptor [35S]GTPγS functional assay, HEK-293 or CHO cells
# Format: biochemical
# Design: expressed in transfected cells; host or cells: U-2 OS (in-house membranes)
# run parameters: HEK-293 or CHO cells; relative to U69,593
Give measured Emax for each item. Keep answers brief.

Give the reported value of Emax for this record: CN(C(=O)Nc1ccc(C#N)cc1)C1C2Cc3ccc(O)cc3[C@@]1(C)CCN2Cc1ccoc1 (stereo in doubt) [Compound 90]
1%

Identify measured Emax corresponding to CN1CC[C@@]2(C)c3cc(O)ccc3C[C@@H]1[C@H]2NCCc1ccc(S(N)(=O)=O)cc1 [Compound 94]
4.6%

// fetch Emax given entry CN1CC[C@@]2(C)c3cc(O)ccc3C[C@@H]1[C@@H]2NCC1CCN(C(=O)OC(C)(C)C)CC1 [Compound 30]
0.33%

Annotate the compound CN(C(=O)Nc1ccc(C#N)cc1)[C@H]1C2Cc3ccc(O)cc3[C@@]1(C)CCN2CC1CCC1 [Compound 88] with its measured Emax.
18.5%

Return Emax (reported value) for this compound: CN(C(=O)/C=C/c1ccoc1)[C@@H]1[C@H]2Cc3ccc(O)cc3[C@@]1(C)CCN2CC1CC1 [Compound 77]
-1%

Return Emax (reported value) for this compound: CN1CC[C@]2(C)c3cc(O)ccc3CC1[C@H]2COc1ccc(C(N)=O)cc1 [Compound 44]
17.7%

Report Emax, nothing else, for this compound: CC(C)CC(NC(=O)N(C)C1[C@H]2Cc3ccc(O)cc3[C@]1(C)CCN2C)C(=O)O (stereo in doubt) [Compound 76]
-0.33%

----------
# test target: μ-opioid receptor (Homo sapiens, UniProt P35372)
# Sequence (P35372 whole entry, species assumed): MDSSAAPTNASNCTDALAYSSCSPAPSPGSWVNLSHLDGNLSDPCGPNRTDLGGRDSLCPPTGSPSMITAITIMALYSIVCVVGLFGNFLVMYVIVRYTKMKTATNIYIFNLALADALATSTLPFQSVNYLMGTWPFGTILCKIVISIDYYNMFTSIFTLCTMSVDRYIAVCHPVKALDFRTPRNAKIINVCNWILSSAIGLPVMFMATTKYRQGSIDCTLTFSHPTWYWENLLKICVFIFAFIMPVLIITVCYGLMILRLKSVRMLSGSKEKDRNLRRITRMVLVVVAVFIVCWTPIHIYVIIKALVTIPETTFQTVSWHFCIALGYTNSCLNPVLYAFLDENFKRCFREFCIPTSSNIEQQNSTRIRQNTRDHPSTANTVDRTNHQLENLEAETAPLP
# assay overview: μ-opioid receptor [35S]GTPγS functional assay, U-2 OS cells
# Format: biochemical
# Design: expressed in transfected cells; host or cells: U-2 OS
# run parameters: U-2 OS cells; read-out: GTPγS μ EC50
pEC50: −log10 of the molar value.
pEC50 of 8 or higher: y. Under 8: n.

Does the reported pEC50 for CN1CC[C@@]2(C)c3cc(O)ccc3C[C@@H]1[C@H]2NCCCNC(=O)OC(C)(C)C fall at or above the 8 mark?
y

Given the entry CN1CC[C@@]2(C)c3cc(O)ccc3C[C@@H]1[C@H]2NCCc1ccc(S(N)(=O)=O)cc1 , answer whether its pEC50 meets or surpasses 8.
n

Is pEC50 for CN(C)C(=O)C(CCN1CC[C@]2(C)c3cc(O)ccc3CC1[C@H]2O)(c1ccccc1)c1ccccc1 at or above 8?
n

Check the entry CN(C(=O)Nc1ccc(C#N)cc1)[C@H]1C2Cc3ccc(O)cc3[C@@]1(C)CCN2CC1CCC1 : does pEC50 equal or exceed 8?
y

Check if pEC50 >= 8 (inclusive). Item: CN(C(=O)Nc1ccc(C#N)cc1)[C@H]1C2Cc3ccc(O)cc3[C@@]1(C)CCN2CC1CC1
y

State whether the measured pEC50 reaches 8, counting equality as reaching it, for CN1CC[C@]2(C)c3cc(O)ccc3C[C@@H]1[C@@H]2N(C)C(=O)c1ccccc1
n

Evaluate CN1CC[C@@]2(C)c3cc(O)ccc3C[C@@H]1[C@@H]2NCC1CCN(C(=O)OC(C)(C)C)CC1 [Compound 30] : pEC50 at minimum 8?
n

----------
# test target: κ opioid receptor (Homo sapiens, UniProt P41145)
# Sequence (P41145 whole entry): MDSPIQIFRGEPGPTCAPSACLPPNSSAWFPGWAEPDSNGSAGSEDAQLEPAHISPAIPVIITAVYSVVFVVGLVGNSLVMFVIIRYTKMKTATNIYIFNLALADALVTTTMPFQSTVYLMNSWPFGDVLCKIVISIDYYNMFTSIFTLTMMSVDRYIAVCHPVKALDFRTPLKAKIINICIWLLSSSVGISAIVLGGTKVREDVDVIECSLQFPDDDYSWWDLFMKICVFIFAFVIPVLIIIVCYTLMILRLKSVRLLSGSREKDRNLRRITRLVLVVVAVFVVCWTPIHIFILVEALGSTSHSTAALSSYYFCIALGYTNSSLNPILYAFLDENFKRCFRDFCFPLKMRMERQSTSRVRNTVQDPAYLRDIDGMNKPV
# assay overview: κ-opioid receptor [35S]GTPγS functional assay, HEK-293 or CHO cells
# Assay type: biochemical
# Design: expressed in transfected cells; host or cells: U-2 OS (in-house membranes)
# run parameters: HEK-293 or CHO cells; bound in μM; read-out: GTPγS κ EC50
reported endpoint: EC50

Report EC50 on κ opioid receptor (Homo sapiens, UniProt P41145) for this entry: CC(C)CC(NC(=O)N(C)C1[C@H]2Cc3ccc(O)cc3[C@]1(C)CCN2C)C(=O)O (stereo in doubt) [Compound 76]
> 20 µM

Param request: EC50 | system κ opioid receptor (Homo sapiens, UniProt P41145) | item CN1CC[C@@]2(C)c3cc(O)ccc3C[C@@H]1[C@H]2NCCc1ccc(S(N)(=O)=O)cc1 [Compound 94]
> 20 µM

State recorded EC50 with κ opioid receptor (Homo sapiens, UniProt P41145), entry CN(C)C(=O)C(CCN1CC[C@]2(C)c3cc(O)ccc3CC1[C@H]2O)(c1ccccc1)c1ccccc1 [Compound 22] , no comment.
> 20 µM

Please respond with reported EC50 (system κ opioid receptor (Homo sapiens, UniProt P41145)) for CN1CC[C@@]2(C)c3cc(O)ccc3C[C@@H]1[C@@H]2NCCc1ccc(S(N)(=O)=O)cc1 [Compound 92] .
> 20 µM

Report EC50 on κ opioid receptor (Homo sapiens, UniProt P41145) for this entry: CN(C(=O)Nc1ccc(C#N)cc1)C1C2Cc3ccc(O)cc3[C@@]1(C)CCN2Cc1ccoc1 (stereo in doubt) [Compound 90]
> 20 µM
